- experimental-target: Protein Mdm4 (Homo sapiens) + E3 ubiquitin-protein ligase Mdm2 (Homo sapiens) (UniProt O15151+Q00987)
- Sequence (O15151 whole entry, looked up): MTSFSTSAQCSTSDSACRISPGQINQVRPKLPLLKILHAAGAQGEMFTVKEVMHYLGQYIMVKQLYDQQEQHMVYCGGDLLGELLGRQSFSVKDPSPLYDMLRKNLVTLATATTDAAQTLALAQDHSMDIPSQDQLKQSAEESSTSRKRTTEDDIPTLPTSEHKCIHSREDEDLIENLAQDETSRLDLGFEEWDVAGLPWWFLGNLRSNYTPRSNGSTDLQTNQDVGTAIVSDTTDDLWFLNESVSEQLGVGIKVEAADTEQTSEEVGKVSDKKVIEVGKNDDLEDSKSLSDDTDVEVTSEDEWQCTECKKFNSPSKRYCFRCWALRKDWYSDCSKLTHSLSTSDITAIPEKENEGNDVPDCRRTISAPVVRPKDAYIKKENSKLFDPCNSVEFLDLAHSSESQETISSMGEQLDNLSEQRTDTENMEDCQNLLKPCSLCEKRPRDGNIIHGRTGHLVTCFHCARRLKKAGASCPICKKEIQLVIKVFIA
- Sequence (Q00987 whole entry, looked up): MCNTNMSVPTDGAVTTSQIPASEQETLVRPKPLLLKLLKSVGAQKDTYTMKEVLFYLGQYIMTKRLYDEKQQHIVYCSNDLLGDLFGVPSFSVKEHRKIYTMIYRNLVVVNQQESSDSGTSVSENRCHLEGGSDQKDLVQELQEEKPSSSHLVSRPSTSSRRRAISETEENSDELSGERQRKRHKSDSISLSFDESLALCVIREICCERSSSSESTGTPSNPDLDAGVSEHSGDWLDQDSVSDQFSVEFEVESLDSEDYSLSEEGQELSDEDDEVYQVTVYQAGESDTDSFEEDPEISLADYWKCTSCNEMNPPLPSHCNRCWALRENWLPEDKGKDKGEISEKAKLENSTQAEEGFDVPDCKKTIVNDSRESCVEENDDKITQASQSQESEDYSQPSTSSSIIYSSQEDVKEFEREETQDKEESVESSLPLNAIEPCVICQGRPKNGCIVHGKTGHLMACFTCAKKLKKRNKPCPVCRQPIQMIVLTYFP
- measurement-description: inhibitors of human Mdm2-MdmX association, primary screen, cell-based, luminescence, split luciferase, SaOS-2, uHTS (AID 485346)
- assay-conditions: SaOS-2 split-luciferase Mdm2/MdmX complementation, at 8 µM, active compounds read high
Out of some 330,000 compounds screened, about 10,000 (3%) were called active. The entries come from a sample that favours actives as a whole.
measured-metric: inhibition (%)
Answers are plain numbers, in %.

# return inhibition for each item in the list
1. Cc1cc(C(=O)Cn2cnc3cc([N+](=O)[O-])ccc3c2=O)c(C)n1CC1CCCO1 (configuration not stated)
2. Cc1ccc(C)c(C(=O)N2CCC(n3nccc3NC(=O)C3CC3)CC2)c1
3. CCCC(CNC(=O)COC(=O)C1=NNC(=O)CC1)c1ccc(Cl)cc1Cl (configuration not stated)
4. CC(=O)c1ccccc1NC(=O)CC1(CC(=O)O)CCCCC1
5. Cc1nnc(NC(=O)Nc2ccc(Cl)c(Cl)c2)s1

Reply:
1: -7.26; 2: 13.7; 3: -11.5; 4: 10.9; 5: 95.2

Data provenance: PubChem BioAssay AID485346
